Target: horse spleen apoferritin (Equus caballus, UniProt P02791)
Construct: gene FTL; native spleen apoferritin from Sigma-Aldrich, 24-mer, heavy and light chains in approximate mole ratio 1:6; with Ferritin heavy chain
Sequence (P02791 2-175): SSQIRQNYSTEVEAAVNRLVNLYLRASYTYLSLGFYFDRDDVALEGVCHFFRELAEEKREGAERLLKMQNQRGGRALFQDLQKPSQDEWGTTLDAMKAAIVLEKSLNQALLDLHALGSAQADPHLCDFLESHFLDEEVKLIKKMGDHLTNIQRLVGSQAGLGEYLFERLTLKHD
Experiment: isothermal titration calorimetry
Format: binding

MOLECULE | UNIT_ANNOTATION | Kd
CCCC(C)C1(CC)C(=O)NC(=O)NC1=O (racemic) | µM | 64.3
